test: Mouse pharmacokinetic (PK) study; type: in vivo, CD-1 mice; conditions: mouse, plasma; CD-1 mice, 10 mg/kg PO (Table 7)
Endpoint Label: Cmax

Problem: // Cmax lookup, key: C/C(=C\C=C\[C@@H](C)c1ccccn1)[C@H]1OC(=O)C[C@H](O)CC[C@@](C)(O)[C@@H](OC(=O)N2CCC(N3CCCCC3)CC2)/C=C/[C@@H]1C
Solution: 1250 ng/mL

====

assay: Mouse pharmacokinetic (PK) study; format: in vivo, CD-1 mice; conditions: mouse, plasma; CD-1 mice, 12 mg/kg PO
Endpoint Label: half-life (h)
Give bare numbers, in h.

Problem: Field request: half-life | item: C/C(=C\C=C\[C@@H](C)c1ccccn1)[C@H]1OC(=O)C[C@H](O)CC[C@@](C)(O)[C@@H](OC(=O)N2CCN(C3CCCCCC3)CC2)/C=C/[C@@H]1C
Solution: 3
